System: HT29 colon
run-description: NCI-60 one-dose screen, 48 h
condition-notes: 10 µM unless noted
This is part of a sample that, as a whole, favours compounds with a hit. Of some 83,000 tested, about 20% had one in any assay. The source made the active and inactive calls. How the source made its calls: active means growth percent below 10; inactive means the rest.
Outcomes: y = active, n = inactive

compound | discrete-label
O=C(CCn1cc[n+](CC(=O)c2ccc(-c3ccccc3)cc2)c1)Nc1cccc2cccnc12 | n
C[C@H](CCC(=O)NCc1ccc(C(=O)Nc2ccccc2N)cc1)[C@H]1CC[C@H]2[C@@H]3[C@@H](O)C[C@@H]4C[C@H](O)CC[C@]4(C)[C@H]3CC[C@]12C | n
CC(=O)O[C@@H]1C(=O)N(c2cnccn2)[C@H]1c1ccccc1[N+](=O)[O-] | y
O=C(CN1CCN(c2cc(=O)n(-c3ccccc3)c3ccccc23)CC1)Nc1nc(-c2ccccc2)cs1 | n
CCOC(=O)c1c(Nc2ccccc2)nn2c(-c3ccc(Cl)cc3)ccnc12 | n
C=CCn1c(SCC(=O)Nc2ccc(C(=O)/C=C/c3cccc([N+](=O)[O-])c3)cc2)nnc1-c1c[nH]c2ccccc12 | n
CC1=CC(=O)C2=C(C)CC(OC(=O)CCc3ccccc3)[C@@H]3[C@H](OC(=O)[C@@H]3C)[C@@H]12 (stereo partly drawn) | n
C=CCn1c(SCC(=O)Nc2ccc(C(=O)/C=C/c3ccc(Cl)cc3)cc2)nnc1-c1c[nH]c2ccccc12 | n
COc1ccc(S(=O)(=O)NCCCNc2nccc(-c3cn(C(C)(C)C)nc3-c3ccc(Cl)c(OC)c3)n2)cc1 | n
NC(N)=Nc1ccc(Oc2cccc(NC(N)=Nc3ccc(Cl)c(C(F)(F)F)c3)c2)cn1 | n
Cc1c(F)cc(C(N)=O)cc1NCC(=O)Nc1ccc([N+](=O)[O-])cc1 | n
C[C@@H](Nc1c(C#N)cnc2ccc(-c3cnc(Cl)c(NS(C)(=O)=O)c3)cc12)c1ccccc1 | n
COc1c(N2CC3CCCNC3C2)c(F)cc2c(=O)c(C(=O)N/N=C/c3ccc4c(c3)OCO4)cn(C3CC3)c12 (stereo not drawn) | y
Cc1ccc(-c2cc3nc(C(Cl)Cl)nc(-c4cccs4)n3n2)cc1 | n
COc1ccc([C@H]2[C@H](O)C(=O)N2c2cc(OC)c(OC)c(OC)c2)cc1F | y
CCCCNNC(=O)c1ccc(-c2cccc(F)c2F)cc1 | n
O=C(Nc1nc2ccc([N+](=O)[O-])cc2s1)Nc1ccccc1Br | n
CCCn1cnc2c(c1=N)C(c1ccc(Cl)cc1)c1sc3c(CC)cccc3c1O2 (stereo not drawn) | y
